# SYSTEM_TESTED: T1, human GFRα3 expressed with a C-terminal myc-myc-hexahistidine tag (human, UniProt O60609 32-374, biotinylated (sites not given) in ELISA format 2 and in the Octet cross-competition; not in SPR)
# T1 construct: also called hGFRα3-mmh; hGFRα3-mmH
# ASSAY_REMARKS: SPR, Ab captured, 37C
The following binders are listed with their measured pKd values.
Please keep in mind that pKd is minus log10 of the molar concentration; only the number is needed.

Reference set, count: 2
Param item = H4H2346S (antibody, human IgG4, V domains shown, human IgG4 Fc (H4H)) VH: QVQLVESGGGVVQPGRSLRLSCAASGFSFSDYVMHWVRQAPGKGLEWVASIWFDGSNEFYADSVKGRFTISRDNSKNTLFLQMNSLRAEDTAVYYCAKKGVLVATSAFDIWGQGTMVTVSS VL: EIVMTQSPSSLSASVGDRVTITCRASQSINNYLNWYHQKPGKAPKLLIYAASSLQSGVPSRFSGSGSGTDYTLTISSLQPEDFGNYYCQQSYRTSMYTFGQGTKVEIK ; retrieve measured pKd.
8.85

Param item = H2aM2210N (antibody, mouse IgG2, V domains shown, chimeric, mouse IgG2 Fc (H2M/H2aM); also called H2M2210N) VH: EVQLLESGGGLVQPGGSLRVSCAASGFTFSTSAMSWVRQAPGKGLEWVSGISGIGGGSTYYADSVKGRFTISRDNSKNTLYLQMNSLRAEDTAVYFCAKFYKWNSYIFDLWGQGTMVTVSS VL: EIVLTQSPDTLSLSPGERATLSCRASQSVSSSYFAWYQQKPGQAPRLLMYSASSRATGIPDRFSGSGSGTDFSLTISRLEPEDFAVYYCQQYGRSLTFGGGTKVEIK ; retrieve measured pKd.
7.80

***
Param item = H4H2236N3 (antibody, human IgG4, V domains shown, human IgG4 Fc (H4H)) VH: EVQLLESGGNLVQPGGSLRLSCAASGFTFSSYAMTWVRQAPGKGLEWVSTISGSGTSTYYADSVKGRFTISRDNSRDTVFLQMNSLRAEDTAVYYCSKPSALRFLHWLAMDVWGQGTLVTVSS VL: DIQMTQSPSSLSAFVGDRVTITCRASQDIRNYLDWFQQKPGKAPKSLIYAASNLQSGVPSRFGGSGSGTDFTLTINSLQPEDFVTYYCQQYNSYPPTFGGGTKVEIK ; retrieve measured pKd.
9.42

Param item = H4H2357S (antibody, human IgG4, V domains shown, human IgG4 Fc (H4H)) VH: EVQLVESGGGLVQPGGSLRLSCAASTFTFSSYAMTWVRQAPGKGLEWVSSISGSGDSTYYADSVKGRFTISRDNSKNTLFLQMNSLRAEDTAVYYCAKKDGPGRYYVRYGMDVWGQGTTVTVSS VL: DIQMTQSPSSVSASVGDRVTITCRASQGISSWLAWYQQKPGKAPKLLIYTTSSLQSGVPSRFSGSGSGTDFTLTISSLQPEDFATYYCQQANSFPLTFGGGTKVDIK ; retrieve measured pKd.
8.15

Param item = H4H2295S (antibody, human IgG4, V domains shown, human IgG4 Fc (H4H)) VH: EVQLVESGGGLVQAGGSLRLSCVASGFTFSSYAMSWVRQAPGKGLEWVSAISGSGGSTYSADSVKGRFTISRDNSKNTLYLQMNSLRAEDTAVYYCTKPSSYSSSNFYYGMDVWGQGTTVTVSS VL: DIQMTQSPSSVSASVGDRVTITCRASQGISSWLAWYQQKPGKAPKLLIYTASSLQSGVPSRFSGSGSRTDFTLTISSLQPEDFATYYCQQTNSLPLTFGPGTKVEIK ; retrieve measured pKd.
8.75
